Cited source: PubChem BioAssay (NCI)

Test system: SK-MEL-2 melanoma
Assay: NCI tumour cell line growth inhibition, 48 h
Where a SMILES comes first, the peptide text is derived from it. [ ]: non-standard residue; d: D form. The star is where a group is joined. NMeV = CN[C@H](C(=O)O)C(C)C; X29 = COc1ccc(CN*)c(OC)c1; Octanoyl = CCCCCCCC(=O)*; dNMeA = CN[C@H](C)C(=O)O; Boc = CC(C)(C)OC(=O)*
The entries below come with measured TGI values attached.

Here's what some known entries look like.
Clc1ccc(Nc2nc3ccccc3nc2-c2cccs2)cc1Cl    > 100 µM
CS(=O)(=O)OCC1CN(S(C)(=O)=O)c2cc(O)ccc21 (stereo not given)    6.88 µM
C#C[C@]1(O)CCCC2=CC(=O)CC[C@@]21C    > 100 µM
COc1nc(=O)n(COC(CO)CN2C(=O)c3ccccc3C2=O)cc1Cc1cccc(OCc2ccccc2)c1 (stereo not given)    31.3 µM
O=C(c1ccccc1)c1ccc2nc(-c3c(Cl)c(Cl)c(Cl)c(Cl)c3C(=O)N/N=C/c3ccc(Cl)cc3)[nH]c2c1    72.4 µM

input: Quickly give me recorded TGI for "CCOC(=O)C1=C(C)N(c2ccc(Cl)cc2)[C@]2(C#N)C(O)=C(Cl)C(Cl)=C(O)[C@]12C#N"
output: > 100 µM

input: Determine its reported TGI: "CCOc1ccccc1C(=O)N1CCN(c2cc(Cl)cc(Cl)c2)CC1"
output: 18.4 µM

input: Identify measured TGI associated with "COC(=O)c1onc(-c2c(OC)cc(OC)cc2OC)c1C(=O)OC"
output: > 100 µM

input: Please list TGI recorded for the compound Cc1cccc(C)c1NC(=O)/C(=N/NC(N)=S)C(C)C(=O)c1ccc(Cl)cc1 (stereo not given)
output: > 100 µM

input: Supply TGI value. Item: "O=C1C=CC2(C=C1)O[C@H](Cc1ccccc1)[C@@H](Cc1ccccc1)O2"
output: 3.33 µM

input: Name the recorded TGI of the item "Oc1ccc(-c2cc(-c3cc(-c4ccc(O)cc4)no3)on2)cc1" in your answer.
output: > 100 µM

input: Note TGI for the compound shown: "CC1=C2[C@@H](CC1)[C@]1(C)O[C@@](c3ccccc3)(C[C@H]1OC(=O)CO)[C@H]2OC(=O)/C=C/c1ccccc1"
output: 38.4 µM

input: Respond only with TGI recorded for CC(C)(C)OC(=O)NC(Cc1ccc(O)cc1)C(=O)N1CCCC1C(=O)O (stereo not drawn) (Boc-Tyr-Pro-OH; configuration not given here)
output: > 100 µM

input: Tell me measured TGI for "O=C(CSc1nnc(Cc2ccccc2)o1)Nc1ccccc1" please.
output: > 100 µM

input: Determine its reported TGI: CCCCCCCC(=O)N[C@H](C(=O)N[C@H](C(=O)N(C)[C@H](C(=O)N1CCC[C@H]1C(=O)N(C)[C@H](C)C(=O)NCc1ccc(OC)cc1OC)C(C)C)C(C)C)C(C)C (Octanoyl-VV[NMeV]P[dNMeA]-X29)
output: 42.3 µM

input: Answer with the recorded TGI for the compound listed here: CC(=O)OC12C=C(C)C(C(C)C1)C1C(=O)N(CCN3CCOCC3)C(=O)C12 (stereo not given)
output: > 100 µM

input: Given "O=[N+]([O-])c1nccn1CCCNc1ccnc2cc(Cl)ccc12" , respond with its TGI.
output: > 95.7 µM

input: Identify measured TGI corresponding to "CNC(=O)C1(N)c2ccccc2C=Cc2ccccc21"
output: > 100 µM

input: Consider the compound "CC(C)(C)OC(=O)N/N=C(/N)Cc1ccc(Cl)cc1" and give its recorded TGI.
output: > 100 µM

input: Tell me TGI reported for "CC(C)NCCCn1c(Sc2cc3c(cc2I)OCO3)nc2c(N)ncnc21"
output: > 83.2 µM

input: Please give the documented TGI of N#C[C@H](OC1OC(COC2OC(CO)C(O)C(O)C2O)C(O)C(O)C1O)c1ccccc1 (stereo not given in full)
output: > 250 µM

input: Quote TGI reported for COc1cc(N2C(=O)[C@H](O)C2c2ccc(SC)cc2)cc(OC)c1OC (stereo not given in full) please.
output: > 100 µM

input: Identify measured TGI associated with "COc1cc2c3c(c1)CCCN3CCC2"
output: > 10 µM

input: Tell us which TGI value is on record for "CN1CCN(C(=O)c2cc(-c3ccc4ncnc(N5CCc6cc(F)c(Cl)cc65)c4c3)cnc2N)CC1"
output: 1.02 µM

input: Supply TGI value. Item: "Cn1c(=O)c2[nH]c(CCNC(=O)c3ccccc3)nc2n(C)c1=O"
output: > 100 µM
